// values below are reported Neutralization - RSV A2 IC50 (pM)
# TARGET_UNDER_TEST: RSV F on RSV subtype A virus (RSV-A2) (Respiratory Syncytial Virus, subtype A, …, UniProt P03420 26-574)
# EXPERIMENT_DESCRIPTION: cell-based or functional assay
Number in pM, nothing else.

Answered examples (4):
# BINDER, Neutralization - RSV A2 IC50 (pM)
data = [
    ("ADI-14583 (antibody, V domains shown) VH: QVQLVQSGAEVKEPGASVKVSCKASGYTFTNYGISWVRQAPGQGLEWLGWISAYNGNIHYAQKVQGRVTMTTDTSTSTGFMELRSLRSDDTAVYYCAREPPVIAAGDFQHWGQGTLVTVSS VL: ETTLTQSPLSLPVTLGQPASISCRSSQSLVHSNGNTYLSWFQQRPGQSPRRLIYRVSNRDSGVPDRFSGSGSGTDFTLKISRVEAEDVGLYYCMQGTHWPPDFGQGTRLEIK", 125),
    ("ADI-36672 (antibody, V domains shown) VH: EVQLVESGGGLVKPGGSLRLSCAASGFAFNNYYMNWVRQAPGKGLEWVSSISSASTYTDYADSVKGRFTISRDNAKNSLYLHLNSLRAEDTAVYYCARDYYGSGNYYNPKPLDVWGQGTTVTVSS VL: QPVLTQPPSVSGAPGQRVTISCTGSSSNIGAGYDVHWYRQFPGTAPELLIYGNTNRPSGVPDRFSGSKSGTSASLAITGLQAEDEADYYCQSYDSSLKGVFGGGTKLTVL", 207),
    ("ADI-36676 (antibody, V domains shown, also called Ab 832; Antibody Number 832) VH: EVQLLESGGGVVQPGRSLRLSCAASGFSFRNYDMHWVRQAPGKGLEWVAIISYDGSNKYADSVKGRFTISRDTSKNTLYLQMNSLRVEDTAVYYCARADSSGYYKGSEYFQHWGQGTLVTVSS VL: SYELTQLPSVSVAPGQTARITCGGNNIGTKSVQWYQHKPGQAPVLVVYDDSDRPSDIPERFSGSNSGNTATLTISRVEAGDEADYYCQVWDSSSDHYVFGTGTKLTVL", 130),
    ("ADI-41274 (antibody, V domains shown, also called Ab 592; Antibody Number 592) VH: EVQLVESGGGLVKPGGSLRLSCAASGFSFSSYAMNWVRQAPGKGLQWVSSISAGSSYIDYADSVKGRFTISRDNAENSLFLQMNSLRVEDTAVYYCARVGSYTHGYEFDYWGQGTLVTVSS VL: QPVLTQPPSVSGAPGQRVTISCTGSNSNIGAGYDVHWYQQLPGTAPKLLIYASTIRPSGVPDRFSGSKSGTSASLAITGLQAEDEADYYCQSYDRNLSVVFGGGTKVTVL", 26.6),
]

The record that follows has no Neutralization - RSV A2 IC50 (pM) shown yet.
The value of Neutralization - RSV A2 IC50 (pM) measured for the binder ADI-36674 (antibody, V domains shown) VH: EVQLLESGGGLVKPGGSLRLSCAASGFKFRSYSMNWVRQAPGKGLEWVSSISSSSSYVDYAGSLKGRFTISRDNAENSLYLQMNSLRAEDTAMYYCARAGSVPVAGTYNDYWGQGTLVTVSS VL: QSVLTQPPSVSGAPGQRVTISCTGSSSNIGAGYDVHWYQHLPGTAPKLLIHGNNNRPAGVPDRFSGSKSGTSASLVITGLQADDEADYYCQSYDRSLSVLFGGGTKVTVL turned out to be 190
